# method: Selectivity index, ratio of CC50 for human MRC5 cells to MIC for Mycobacterium tuberculosis H37Rv
# Type: toxicity, cell-based
# test_conditions: read-out: Selectivity Index
recorded_endpoint: selectivity ratio
Enter the number alone.

Ask: Item N=C(N)NCCc1ccc(OCc2cc(COc3ccc(CCNC(=N)N)cc3)cc(COc3ccc(CCNC(=N)N)cc3)c2)cc1.O=C(O)C(F)(F)F has what recorded selectivity ratio?
Reply: 49

Ask: Item N=C(N)NCCc1ccc(OCc2ccccc2)cc1 has what recorded selectivity ratio?
Reply: 2.6

Ask: Item N=C(N)NCCc1ccc(OCc2ccc(COc3ccc(CCNC(=N)N)cc3)cc2)cc1.O=C(O)C(F)(F)F has what recorded selectivity ratio?
Reply: 10

Ask: Item N=C(N)NCCc1ccc(OCc2c(COc3ccc(CCNC(=N)N)cc3)c(COc3ccc(CCNC(=N)N)cc3)c(COc3ccc(CCNC(=N)N)cc3)c(COc3ccc(CCNC(=N)N)cc3)c2COc2ccc(CCNC(=N)N)cc2)cc1 has what recorded selectivity ratio?
Reply: 1

Ask: Item N=C(N)NCCc1ccc(OCc2cc(COc3ccc(CCNC(=N)N)cc3)c(COc3ccc(CCNC(=N)N)cc3)cc2COc2ccc(CCNC(=N)N)cc2)cc1.O=C(O)C(F)(F)F has what recorded selectivity ratio?
Reply: 11.5

Ask: Item N=C(N)NCCc1ccc(OCc2cccc(COc3ccc(CCNC(=N)N)cc3)c2)cc1.O=C(O)C(F)(F)F has what recorded selectivity ratio?
Reply: 16

Ask: Item N=C(N)NCCc1ccc(OCc2ccccc2COc2ccc(CCNC(=N)N)cc2)cc1.O=C(O)C(F)(F)F has what recorded selectivity ratio?
Reply: 24

====

# method: Cytotoxicity against human MRC5 cells after 24 hrs
# Type: cell-based
recorded_endpoint: CC50 at 24 h

Ask: Item CC[C@@H](CO)NCCN[C@@H](CC)CO [ETHAMBUTOL] has what recorded CC50 at 24 h?
Reply: > 10 µg/mL

Ask: Item N=C(N)NCCc1ccc(OCc2cc(COc3ccc(CCNC(=N)N)cc3)cc(COc3ccc(CCNC(=N)N)cc3)c2)cc1.O=C(O)C(F)(F)F has what recorded CC50 at 24 h?
Reply: 39.5 µg/mL

Ask: Item N=C(N)NCCc1ccc(OCc2ccccc2COc2ccc(CCNC(=N)N)cc2)cc1.O=C(O)C(F)(F)F has what recorded CC50 at 24 h?
Reply: 100 µg/mL

Ask: Item N=C(N)NCCc1ccc(OCc2cc(COc3ccc(CCNC(=N)N)cc3)c(COc3ccc(CCNC(=N)N)cc3)cc2COc2ccc(CCNC(=N)N)cc2)cc1.O=C(O)C(F)(F)F has what recorded CC50 at 24 h?
Reply: 49 µg/mL

Ask: Item N=C(N)NCCc1ccc(OCc2ccc(COc3ccc(CCNC(=N)N)cc3)cc2)cc1.O=C(O)C(F)(F)F has what recorded CC50 at 24 h?
Reply: 21 µg/mL

Ask: Item N=C(N)NCCc1ccc(OCc2ccccc2)cc1 has what recorded CC50 at 24 h?
Reply: 26 µg/mL

Ask: Item N=C(N)NCCc1ccc(OCc2cccc(COc3ccc(CCNC(=N)N)cc3)c2)cc1.O=C(O)C(F)(F)F has what recorded CC50 at 24 h?
Reply: 34.5 µg/mL

Ask: Item NNC(=O)c1ccncc1 [ISONIAZID] has what recorded CC50 at 24 h?
Reply: > 10 µg/mL

Ask: Item N=C(N)NCCc1cc2c(O)c(c1)Cc1cc(CCNC(=N)N)cc(c1O)Cc1cc(CCNC(=N)N)cc(c1O)Cc1cc(CCNC(=N)N)cc(c1O)C2 has what recorded CC50 at 24 h?
Reply: > 256 µg/mL

Ask: Item N=C(N)NCCc1ccc(OCc2c(COc3ccc(CCNC(=N)N)cc3)c(COc3ccc(CCNC(=N)N)cc3)c(COc3ccc(CCNC(=N)N)cc3)c(COc3ccc(CCNC(=N)N)cc3)c2COc2ccc(CCNC(=N)N)cc2)cc1 has what recorded CC50 at 24 h?
Reply: 26 µg/mL
